Where do these numbers come from? They come from patent US8877769B2.

Target Entity: Rat FAAH (Rattus norvegicus, UniProt P97612)
Sequence (P97612 1-579): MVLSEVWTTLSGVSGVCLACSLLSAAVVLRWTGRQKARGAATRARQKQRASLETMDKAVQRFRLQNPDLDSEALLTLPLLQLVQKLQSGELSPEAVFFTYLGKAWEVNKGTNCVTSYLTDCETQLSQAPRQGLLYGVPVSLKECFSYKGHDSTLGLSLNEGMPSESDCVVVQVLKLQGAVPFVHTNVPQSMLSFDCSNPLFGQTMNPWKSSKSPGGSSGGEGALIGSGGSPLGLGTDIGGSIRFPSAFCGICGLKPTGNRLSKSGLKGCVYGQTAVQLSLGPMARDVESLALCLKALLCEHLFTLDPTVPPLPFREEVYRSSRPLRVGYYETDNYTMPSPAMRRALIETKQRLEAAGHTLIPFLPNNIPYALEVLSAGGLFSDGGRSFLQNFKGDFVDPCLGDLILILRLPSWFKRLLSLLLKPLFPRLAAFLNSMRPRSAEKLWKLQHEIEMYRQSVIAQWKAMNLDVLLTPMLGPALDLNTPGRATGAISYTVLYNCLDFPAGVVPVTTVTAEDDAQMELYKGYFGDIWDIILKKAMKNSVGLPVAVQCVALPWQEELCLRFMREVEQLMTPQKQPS
Procedure Summary: Assay Method 2: FAAH assay, 3H-anandamide hydrolysis in cell homogenate
Assay Setup: average of results obtained, > value = solubility limit or highest concentration tested
The label true is reserved for IC50 strictly under 4 µM; false covers values equal to or above it.

Strictly below 4 µM in IC50? O=C(Nc1noc2ncccc12)N1CCN(Cc2cccc(Oc3ccc(F)c(F)c3)c2)CC1 false

Now try O=C(Nc1noc2cccnc12)N1CCN(Cc2cccc(Oc3ccc(Cl)cc3)c2)CC1 . true

Now try O=C(Nc1noc2ncccc12)N1CCN(Cc2ccc3cc[nH]c3c2)CC1 . false

Now try O=C(Nc1ccc2ncoc2c1)N1CCN(Cc2cccc(Oc3ccc(Cl)cc3)c2)CC1 . false

Now try O=C(Nc1noc2cnccc12)N1CCN(Cc2ccc3c(c2)OC(F)(F)O3)CC1 . true

Now try O=C(Nc1cnc2cccnn12)N1CCN(Cc2ccc(OC(F)(F)F)c(Cl)c2)CC1 . true

Now try O=C(Nc1ccn2ccnc2c1)N1CCN(Cc2ccc3c(c2)OC(F)(F)O3)CC1 . true

* * *

Target Entity: Rat FAAH (Rattus norvegicus, UniProt P97612)
Construct: expressed in transfected cells
Procedure Summary: Assay Method 2: FAAH assay, 3H-anandamide hydrolysis in cell homogenate
Type: biochemical
Assay Setup: average of results obtained, > value = solubility limit or highest concentration tested
Quantity: IC50 (µM)
Express the result in µM but write the number alone.

// map O=C(Nc1cnc2cccnn12)N1CCC(Cc2ccc(Cl)c(Cl)c2)CC1 [Example 83] to recorded IC50 (system: Rat FAAH (Rattus norvegicus, UniProt P97612)) 0.03

Now try O=C(Nc1cnc2[nH]ccc2c1)N1CCC(Cc2ccc(Cl)c(Cl)c2)CC1 [Example 81] . 0.003

Now try N#Cc1cccc(Oc2cccc(CN3CCN(C(=O)Nc4noc5ncccc45)CC3)c2)c1 [Example 16] . 6

Now try O=C(Nc1cccn2ccnc12)N1CCN(Cc2ccc(OC(F)(F)F)c(Cl)c2)CC1 [Example 53] . 0.12

Now try O=C(Nc1noc2ncccc12)N1CCN(Cc2cccc(Oc3ccccc3Cl)c2)CC1 [Example 8] . 8

* * *

Target Entity: FAAH (Homo sapiens, UniProt O00519)
Procedure Summary: Assay Method 1: FAAH assay, 3H-anandamide hydrolysis in cell homogenate
Exercise: state measured IC50 for each of the compounds provided.
Express the result in nM but write the number alone.

Reported IC50 for N#Cc1ccnc(Oc2cccc(CN3CCN(C(=O)Nc4cnc5[nH]ccc5c4)CC3)c2)c1 : what is it? 84

Now try O=C(Nc1noc2ncccc12)N1CCN(Cc2cccc(Oc3cccc(Br)c3)c2)CC1 . 150

Now try O=C(Nc1nc2ccccc2o1)N1CCN(Cc2cccc(Oc3ccc(Cl)cc3)c2)CC1 . 880

Now try O=C(Nc1ccn2ccnc2c1)N1CCN(Cc2ccc3c(c2)OC(F)(F)O3)CC1 . 1400

Now try O=C(Nc1cnc2[nH]ccc2c1)N1CCN(Cc2cccc(Oc3ccc(C(F)(F)F)nn3)c2)CC1 . 3

Now try Cc1nn(C)c2ncc(NC(=O)N3CCN(Cc4cccc(Oc5ccc(Cl)cc5)c4)CC3)cc12 . 26

Now try O=C(Nc1noc2ncccc12)N1CCN(Cc2cccc(Oc3ccc(C(F)(F)F)cc3)c2)CC1 . 340

Now try O=C(Nc1cnc2ccccn12)N1CCC(Cc2ccc(Cl)c(Cl)c2)CC1 . 900

Now try N#Cc1ccc(Oc2cccc(CN3CCN(C(=O)Nc4cnc5[nH]ccc5c4)CC3)c2)nc1 . 22

Now try O=C(Nc1cnc2cccnn12)N1CCN(Cc2ccc(OC(F)(F)F)c(Cl)c2)CC1 . 54

Now try N#Cc1cccc(Oc2cccc(CN3CCN(C(=O)Nc4noc5ncccc45)CC3)c2)c1 . 2000

Now try O=C(Nc1nocc1Cl)N1CCC(Cc2cnc3ccccc3c2)CC1 . 14

Now try O=C(Nc1noc2ncccc12)N1CCN(Cc2ccc(Br)c(Br)c2)CC1 . 370

Now try O=C(Nc1noc2ncccc12)N1CCN(Cc2cc3ccccc3o2)CC1 . 3000

Now try O=C(Nc1noc2ncccc12)N1CCN(Cc2cccc(OCc3ccccc3)c2)CC1 . 2000

Now try O=C(Nc1noc2ncccc12)N1CCN(Cc2cc3ccccc3s2)CC1 . 6000

Now try N#Cc1cccnc1Oc1cccc(CN2CCN(C(=O)Nc3cnc4[nH]ccc4c3)CC2)c1 . 48

Now try O=C(Nc1noc2ncccc12)N1CCN(Cc2cccc(Oc3ccc(Br)cc3)c2)CC1 . 34

Now try O=C(Nc1ccnc2[nH]ccc12)N1CCN(Cc2cccc(Oc3ccc(Cl)cc3)c2)CC1 . 1000

Now try O=C(Nc1cnc2[nH]ccc2c1)N1CCN(Cc2ccc3c(c2)OC(F)(F)O3)CC1 . 16

Now try O=C(Nc1cccn2ccnc12)N1CCN(Cc2ccc(OC(F)(F)F)c(Cl)c2)CC1 . 1300

Now try O=C(Nc1noc2ncccc12)N1CCN(Cc2cccc(Oc3cccc(Cl)c3)c2)CC1 . 220

Now try N#Cc1ccc(Oc2cccc(CN3CCN(C(=O)Nc4noc5ncccc45)CC3)c2)cc1 . 300

Now try O=C(Nc1noc2ncccc12)N1CCN(Cc2cccc(Oc3cccc(OC(F)(F)F)c3)c2)CC1 . 1400

Now try Cn1cc2c(NC(=O)N3CCN(Cc4cccc(Oc5ccc(Cl)cc5)c4)CC3)cccc2n1 . 50

Now try O=C(Nc1noc2ncccc12)N1CCN(Cc2cccc(Oc3ccc(OCC(F)(F)F)cc3)c2)CC1 . 200

Now try O=C(Nc1cccc2nccn12)N1CCN(Cc2ccc3c(c2)OC(F)(F)O3)CC1 . 140

* * *

Target Entity: FAAH (Homo sapiens)
Sequence (O00519 1-579): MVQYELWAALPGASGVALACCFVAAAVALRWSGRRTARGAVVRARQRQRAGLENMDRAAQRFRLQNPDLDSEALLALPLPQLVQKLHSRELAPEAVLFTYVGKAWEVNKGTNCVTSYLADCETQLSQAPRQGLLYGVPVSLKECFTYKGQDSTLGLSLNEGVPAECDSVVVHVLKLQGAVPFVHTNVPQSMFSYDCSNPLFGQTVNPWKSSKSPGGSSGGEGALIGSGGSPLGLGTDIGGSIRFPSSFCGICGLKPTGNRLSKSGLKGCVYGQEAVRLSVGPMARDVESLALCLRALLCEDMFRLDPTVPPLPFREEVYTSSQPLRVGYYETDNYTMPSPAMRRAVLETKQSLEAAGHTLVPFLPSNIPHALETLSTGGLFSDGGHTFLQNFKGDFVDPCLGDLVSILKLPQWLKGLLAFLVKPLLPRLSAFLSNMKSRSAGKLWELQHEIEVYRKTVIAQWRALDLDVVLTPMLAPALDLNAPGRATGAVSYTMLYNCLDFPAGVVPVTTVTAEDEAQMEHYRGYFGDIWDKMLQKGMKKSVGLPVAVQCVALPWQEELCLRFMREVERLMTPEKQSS
Procedure Summary: Assay Method 1: FAAH assay, 3H-anandamide hydrolysis in cell homogenate
Quantity: IC50 (nM)
Express the result in nM but write the number alone.

Reported IC50 for O=C(NC1=NS(=O)(=O)c2ccccc21)N1CCN(Cc2cccc(Oc3ccc(Cl)cc3)c2)CC1 [Example 59] : what is it? 2000

Now try O=C(Nc1cnc2[nH]ccc2c1)N1CCC(Cc2ccc(Cl)c(Cl)c2)CC1 [Example 81] . 3

Now try O=C(Nc1ccc2ncoc2c1)N1CCN(Cc2ccc3c(c2)OC(F)(F)O3)CC1 [Example 47] . 2000

Now try O=C(Nc1noc2ncccc12)N1CCN(Cc2ccc3c(c2)OC(F)(F)O3)CC1 [Example 5] . 1600

Now try O=C(Nc1noc2ncccc12)N1CCN(Cc2cccc(Oc3cccc(C(F)(F)F)c3)c2)CC1 [Example 15] . 300
